GI50: recorded values
Test system: SR
Test: NCI SRB growth inhibition (single dose 10 µM / five-dose)
Format: cell-based, human
Conditions: Homo sapiens; SR, Leukemia; five-dose
Protocol: Screening of cytotoxic activity against a panel of sixty human tumor cell lines The selected compounds by NCI were evaluated for their anticancer activity in a two- stage process. […] Using the seven absorbance measurements [time zero, (Tz), control growth, (C), and test growth in the presence of drug at the five concentration levels (Ti)], the percentage growth is calculated at each of the drug concentrations levels. […] Three dose response parameters are calculated for each experimental agent. […]
Test Readout: GI50 (nM)

* O=C(NN=Cc1ccccc1O)c1ccc2[nH]c(-c3ccc(Cl)cc3)nc2c1 | 120
* COc1ccc(-c2nc3cc(C(=O)NN=Cc4cccc(OC)c4O)ccc3[nH]2)cc1 | 2060
* COc1cc(C=NNC(=O)c2ccc3[nH]c(-c4ccc(Cl)cc4)nc3c2)cc(OC)c1OC | 3760

These data points were gathered from paper PMC10893631.
